# Assay protocol: in vitro
# Run parameters: human, uninfected MT-4 cells, CC50 (nM), same protocol as Test A, CellTiter-Glo
Parameter measured: CC50 at 5 days (nM)

{"Compound": "NC(=O)c1cc(-c2cccnc2[C@H](Cc2cccc(F)c2)NC(=O)Cc2cc(=O)[nH]c3ccccc23)ccc1F [Example 257]", "Parameter measured": "CC50 at 5 days", "Bound operator": ">", "Observed measurement": 53200}
{"Compound": "NC(=O)c1cccc(-c2cccnc2[C@H](Cc2cc(F)cc(F)c2)NC(=O)Cc2c[nH]c3cc(C4CC4)c(=O)[nH]c23)c1 [Example 338C]", "Parameter measured": "CC50 at 5 days", "Bound operator": ">", "Observed measurement": 53000}
{"Compound": "COc1ccc(-c2cccnc2[C@H](Cc2ccccc2)NC(=O)Cn2nc(C(F)(F)F)c3c2CCCC3)c(C)c1 [Example 19]", "Parameter measured": "CC50 at 5 days", "Bound operator": "=", "Observed measurement": 14200}
{"Compound": "CC(C)Cc1cc(C(F)(F)F)nn1CC(=O)N[C@@H](Cc1cc(F)cc(F)c1)c1ncccc1-c1ccc(F)c(C(N)=O)c1 [Example 207C]", "Parameter measured": "CC50 at 5 days", "Bound operator": "=", "Observed measurement": 13200}
{"Compound": "O=C(Cn1nc(C(F)(F)F)c2c1CCCC2)N[C@@H](Cc1cc(F)cc(F)c1)c1ncccc1-c1cccc(F)c1 [Example 117]", "Parameter measured": "CC50 at 5 days", "Bound operator": "=", "Observed measurement": 8260}
{"Compound": "NC(=O)c1cc(-c2cccnc2[C@H](Cc2cc(F)cc(F)c2)NC(=O)COc2ccnc(Cl)c2)ccc1F [Example 332B]", "Parameter measured": "CC50 at 5 days", "Bound operator": "=", "Observed measurement": 40000}
{"Compound": "O=C(Cc1c[nH]c2ccc(F)cc12)N[C@@H](Cc1cc(F)cc(F)c1)c1ncccc1-c1ccc(F)c(F)c1 [Example 406]", "Parameter measured": "CC50 at 5 days", "Bound operator": "=", "Observed measurement": 11400}
{"Compound": "CNC(=O)c1cccc(-c2cccnc2[C@H](Cc2cc(F)cc(F)c2)NC(=O)Cc2c[nH]c3ccc(O)cc23)c1 [Example 46]", "Parameter measured": "CC50 at 5 days", "Bound operator": ">", "Observed measurement": 53000}
{"Compound": "Cc1c(Br)c(C(F)(F)F)nn1CC(=O)N[C@@H](Cc1cc(F)cc(F)c1)c1ncccc1-c1ccc(F)c(C(N)=O)c1 [Example 275]", "Parameter measured": "CC50 at 5 days", "Bound operator": "=", "Observed measurement": 16900}
{"Compound": "O=C(Cc1c[nH]c2ccc(F)cc12)N[C@@H](Cc1cc(F)cc(F)c1)c1ncccc1-c1cccc(OCc2ccccc2)c1 [Example 92]", "Parameter measured": "CC50 at 5 days", "Bound operator": "=", "Observed measurement": 10300}
{"Compound": "NC(=O)c1cc(-c2cccnc2[C@H](Cc2cc(F)cc(F)c2)NC(=O)[C@H]2COCCN2)ccc1F [Example 188]", "Parameter measured": "CC50 at 5 days", "Bound operator": ">", "Observed measurement": 53000}
{"Compound": "NC(=O)c1cc(-c2cccnc2[C@H](Cc2cc(F)cc(F)c2)NC(=O)[C@H]2CC[C@@H](c3ccccc3)N2)ccc1F [Example 183]", "Parameter measured": "CC50 at 5 days", "Bound operator": "=", "Observed measurement": 35200}
{"Compound": "O=C(Cc1c[nH]c2ccc(F)cc12)NC(Cc1cc(F)cc(F)c1)c1nccnc1-c1ccc(Cl)cc1 (stereo not shown) [Example 459]", "Parameter measured": "CC50 at 5 days", "Bound operator": "=", "Observed measurement": 14200}
{"Compound": "Cc1cc(-c2cccnc2[C@H](Cc2cc(F)cc(F)c2)NC(=O)Cn2nc(C(F)(F)F)c3c2CCCC3)ccc1F [Example 65]", "Parameter measured": "CC50 at 5 days", "Bound operator": "=", "Observed measurement": 11100}
{"Compound": "C=Cc1c(C(F)F)nn(CC(=O)N[C@@H](Cc2cc(F)cc(F)c2)c2ncccc2-c2ccc(F)c(C(N)=O)c2)c1C(F)F [Example 553]", "Parameter measured": "CC50 at 5 days", "Bound operator": "=", "Observed measurement": 23800}
{"Compound": "NC(=O)c1cc(-c2cccnc2[C@H](Cc2cc(F)cc(F)c2)NC(=O)Cn2nc(C(F)(F)Oc3ccccc3)c3c2CCCC3)ccc1F [Example 159]", "Parameter measured": "CC50 at 5 days", "Bound operator": "=", "Observed measurement": 19100}
{"Compound": "CC(C)c1nccn1CC(=O)N[C@@H](Cc1cc(F)cc(F)c1)c1ncccc1-c1ccc(F)c(C(N)=O)c1 [Example 537]", "Parameter measured": "CC50 at 5 days", "Bound operator": ">", "Observed measurement": 53200}
{"Compound": "O=C(Cn1nc(C(F)(F)F)c2c1CCCC2)N[C@@H](Cc1cc(F)cc(F)c1)c1ncccc1-c1cccc(C(=O)N2CCOCC2)c1 [Example 424]", "Parameter measured": "CC50 at 5 days", "Bound operator": "=", "Observed measurement": 14200}
{"Compound": "NCc1ccc2[nH]cc(CC(=O)N[C@@H](Cc3cc(F)cc(F)c3)c3ncccc3-c3ccc(Cl)cc3)c2c1 [Example 491F]", "Parameter measured": "CC50 at 5 days", "Bound operator": "=", "Observed measurement": 7850}

====

Quick list: CC50 per entry.
# Test system: MT-4 cells
# Assay protocol: in vitro
# Run parameters: uninfected MT-4 cells, same protocol as Test A, 5 days, CellTiter-Glo

{"Compound": "O=C(Cn1nc(C(F)F)c2c1C1CC1CC2)NC(Cc1cc(F)cc(F)c1)c1ncncc1-c1cnc2[nH]ccc2c1 (single isomer, unassigned) [Example 348]", "Measured on": "MT-4 cells", "Unit info": "µM", "Bound operator": "=", "CC50": 14.2}
{"Compound": "NC(=O)c1cc(-c2cccnc2[C@H](Cc2cc(F)cc(F)c2)NC(=O)Cn2nc(C(F)F)c3c2CC2CC32)ccc1F (single isomer, unassigned)", "Measured on": "MT-4 cells", "Unit info": "µM", "Bound operator": "=", "CC50": 23.4}
{"Compound": "CCC(C(=O)N[C@@H](Cc1cc(F)cc(F)c1)c1ncccc1-c1ccc(F)c(C(N)=O)c1)n1cc(C(F)(F)F)cn1 (single isomer, unassigned)", "Measured on": "MT-4 cells", "Unit info": "µM", "Bound operator": "=", "CC50": 23.7}
{"Compound": "CCC(C(=O)N[C@@H](Cc1cc(F)cc(F)c1)c1ncccc1-c1ccc(F)c(C(N)=O)c1)n1cc(C(C)=O)c2ccccc21 (some centres unmarked) [Example 544]", "Measured on": "MT-4 cells", "Unit info": "µM", "Bound operator": ">", "CC50": 53.2}
{"Compound": "CCC(C(=O)N[C@@H](Cc1cc(F)cc(F)c1)c1ncccc1-c1ccc(F)c(C(N)=O)c1)n1nc(C(F)(F)F)c2c1CCCC2 (single isomer, unassigned) [Example 531]", "Measured on": "MT-4 cells", "Unit info": "µM", "Bound operator": "=", "CC50": 7.4}
{"Compound": "O=C(N[C@@H](Cc1cc(F)cc(F)c1)c1ncccc1-c1ccc(Cl)cc1)C(c1c[nH]c2ccc(F)cc12)C(F)(F)F (single isomer, unassigned) [Example 36G]", "Measured on": "MT-4 cells", "Unit info": "µM", "Bound operator": "=", "CC50": 6.93}
{"Compound": "NC(=O)c1cc(-c2cccnc2[C@H](Cc2cc(F)cc(F)c2)NC(=O)C(c2ccccc2)C2CCCC2)ccc1F (single isomer, unassigned)", "Measured on": "MT-4 cells", "Unit info": "µM", "Bound operator": "=", "CC50": 11}
{"Compound": "CNS(=O)(=O)c1ccc(-c2cccnc2C(Cc2cc(F)cc(F)c2)NC(=O)Cn2nc(C(F)F)c3c2C(F)(F)C2C[C@H]32)cc1 (some centres unmarked)", "Measured on": "MT-4 cells", "Unit info": "µM", "Bound operator": "=", "CC50": 41.6}

====

# Assay protocol: in vitro
# Run parameters: human, uninfected MT-4 cells, CC50 (nM), same protocol as Test A, CellTiter-Glo

{"Compound": "CC(C)(C)OC(=O)N1CCOC[C@@H]1C(=O)N[C@@H](Cc1cc(F)cc(F)c1)c1ncccc1-c1ccc(F)c(C(N)=O)c1", "Unit info": "nM", "Bound operator": ">", "CC50 at 5 days": 53000}
{"Compound": "NC(=O)c1cc(-c2cccnc2[C@H](Cc2cc(F)cc(F)c2)NC(=O)COc2cc[nH]c(=O)c2)ccc1F", "Unit info": "nM", "Bound operator": ">", "CC50 at 5 days": 53200}
{"Compound": "NC(=O)c1cc(-c2cccnc2[C@H](Cc2cc(F)cc(F)c2)NC(=O)Cn2nc(-n3cccn3)ccc2=O)ccc1F", "Unit info": "nM", "Bound operator": ">", "CC50 at 5 days": 53200}
{"Compound": "NC(=O)c1cc(-c2cccnc2[C@H](Cc2cc(F)cc(F)c2)NC(=O)[C@@H]2C[C@H](c3ccccc3)CN2)ccc1F", "Unit info": "nM", "Bound operator": "=", "CC50 at 5 days": 51700}
{"Compound": "O=C(Cn1nc(C(F)(F)F)c2c1CCCC2)N[C@@H](Cc1cc(F)cc(F)c1)c1nc[nH]c(=O)c1-c1ccc(Cl)cc1 [Example 301B]", "Unit info": "nM", "Bound operator": "=", "CC50 at 5 days": 5650}
{"Compound": "NC(=O)c1cccc(-c2cccnc2[C@H](Cc2cc(F)cc(F)c2)NC(=O)C2CC23C(=O)Nc2ccccc23)c1 (stereo partly drawn)", "Unit info": "nM", "Bound operator": "=", "CC50 at 5 days": 23000}
{"Compound": "NC(=O)c1cc(-c2cccnc2[C@H](Cc2cc(F)cc(F)c2)NC(=O)Cn2nc(C(F)(F)F)c3c2C2CC2C3=O)ccc1F (stereo partly drawn) [Example 465B]", "Unit info": "nM", "Bound operator": ">", "CC50 at 5 days": 53200}
{"Compound": "Cc1cnc([C@H](Cc2cc(F)cc(F)c2)NC(=O)Cc2c[nH]c3ccc(O)cc23)c(-c2ccc(F)c(C(N)=O)c2)c1 [Example 262G]", "Unit info": "nM", "Bound operator": ">", "CC50 at 5 days": 51200}
{"Compound": "NC(=O)c1cc(-c2cccnc2[C@H](Cc2cc(F)cc(F)c2)NC(=O)Cn2nc(C(F)(F)F)c3c2CNC3)ccc1F", "Unit info": "nM", "Bound operator": ">", "CC50 at 5 days": 53200}
{"Compound": "NC(=O)c1cc(-c2cccnc2[C@H](Cc2cc(F)cc(F)c2)NC(=O)Cn2ncc3c2CCCC3)ccc1F", "Unit info": "nM", "Bound operator": ">", "CC50 at 5 days": 53200}
{"Compound": "NC(=O)c1cc(-c2cccnc2[C@H](Cc2cc(F)cc(F)c2)NC(=O)Cn2nc(C(F)(F)OCc3ccccn3)c3c2CCCC3)ccc1F", "Unit info": "nM", "Bound operator": "=", "CC50 at 5 days": 21100}
{"Compound": "NC(=O)c1cc(-c2cccnc2[C@H](Cc2cc(F)cc(F)c2)NC(=O)Cn2nc3c(c2C(F)(F)F)C(=O)C2CC32)ccc1F (stereo partly drawn) [Example 346D]", "Unit info": "nM", "Bound operator": "=", "CC50 at 5 days": 39000}
{"Compound": "NC(=O)c1cc(-c2cccnc2[C@H](Cc2cc(F)cc(F)c2)NC(=O)Cn2nc(C(F)(F)F)c3c2C(=O)CCC3(F)F)ccc1F", "Unit info": "nM", "Bound operator": "=", "CC50 at 5 days": 23400}
{"Compound": "O=C(Cn1nc(C(F)F)c2c1C1CC1CC2)NC(Cc1cc(F)cc(F)c1)c1ncncc1-c1cnc2[nH]ccc2c1 (single isomer, unassigned) [Example 329]", "Unit info": "nM", "Bound operator": "=", "CC50 at 5 days": 14700}
{"Compound": "NC(=O)c1cc(-c2cccnc2[C@H](Cc2cc(F)cc(F)c2)NC(=O)C2(c3ccccc3)CC2)ccc1F", "Unit info": "nM", "Bound operator": "=", "CC50 at 5 days": 21400}
{"Compound": "Cc1nn(CC(=O)N[C@@H](Cc2cc(F)cc(F)c2)c2ncccc2-c2cccc(C(N)=O)c2)c(C)c1C", "Unit info": "nM", "Bound operator": ">", "CC50 at 5 days": 53000}
{"Compound": "NC(=O)c1cccc(-c2cccnc2[C@H](Cc2cc(F)cc(F)c2)NC(=O)Cn2ccc3ccc(=O)[nH]c32)c1 [Example 298C]", "Unit info": "nM", "Bound operator": ">", "CC50 at 5 days": 53000}
{"Compound": "Nc1ccc(-c2cccnc2[C@H](Cc2cc(F)cc(F)c2)NC(=O)Cn2nc(C(F)F)c3c2C(F)(F)CCC3(F)F)cn1", "Unit info": "nM", "Bound operator": "=", "CC50 at 5 days": 15200}
